# Test system: OAW-42 (Ovarian Carcinoma)
# Experiment Summary: combination Emax (second highest fraction inhibited in the dose matrix, 72 h); higher = more inhibition; extreme values may be limits of the assay
Let's look at some compounds and their measured combination Emax.
Please reply with the number alone, leaving off any unit.

Compound: COc1nnc2ccc(N3CCC(c4ccc(OCCN5CCN(C)C(=O)[C@H]5C)cc4)CC3)nn12 [AZD5153] + C=CCn1c(=O)c2cnc(Nc3ccc(N4CCN(C)CC4)cc3)nc2n1-c1cccc(C(C)(C)O)n1 [AZD1775] (first compound max 1 µM, partner max 1 µM)
combination Emax: 0.615

Compound: COc1nnc2ccc(N3CCC(c4ccc(OCCN5CCN(C)C(=O)[C@H]5C)cc4)CC3)nn12 [AZD5153] + CN(CC[C@H](CSC1=CC=CC=C1)NC2=C(C=C(C=C2)S(=O)(=O)NC(=O)C3=CC=C(C=C3)N4CCC(CC4)[C@H](C5=CC=CC=C5C6=CC=C(C=C6)Cl)O)S(=O)(=O)C(F)(F)F)CCO [AZD4320] (first compound max 1 µM, 7x7, partner max 1 µM)
combination Emax: 0.41

Compound: CC(=O)Nc1cccc(-n2c(=O)n(C3CC3)c(=O)c3c(Nc4ccc(I)cc4F)n(C)c(=O)c(C)c32)c1 [Trametinib] + Cc1nc(-c2cn3c(n2)-c2ccc(-c4cnn(C(C)(C)C(N)=O)c4)cc2OCC3)n(C(C)C)n1 [Taselisib] (first compound max 1 µM, 7x7, partner max 10 µM)
combination Emax: 0.969

Compound: CN(CCO)CC[C@H](CSc1ccccc1)Nc1ccc(S(=O)(=O)NC(=O)c2ccc(N3CCC([C@@H](O)c4ccccc4-c4ccc(Cl)cc4)CC3)cc2)cc1S(=O)(=O)C(F)(F)F [AZD4320] + CCN(CCO)CCCOc1ccc2c(Nc3cc(CC(=O)Nc4cccc(F)c4)[nH]n3)ncnc2c1 [AZD2811] (first compound max 1 µM, 7x7, partner max 1 µM)
combination Emax: 0.14

Item: CN(CCO)CC[C@H](CSc1ccccc1)Nc1ccc(S(=O)(=O)NC(=O)c2ccc(N3CCC([C@@H](O)c4ccccc4-c4ccc(Cl)cc4)CC3)cc2)cc1S(=O)(=O)C(F)(F)F [AZD4320] + CN(C)CCCOc1ccc(-c2ccc3ncc4c(c3c2)n(C2CCOCC2)c(=O)n4C)cn1 [AZD0156] (first compound max 1 µM, 7x7, partner max 1 µM) | combination Emax: 0.261

Item: CN(CCO)CC[C@H](CSc1ccccc1)Nc1ccc(S(=O)(=O)NC(=O)c2ccc(N3CCC([C@@H](O)c4ccccc4-c4ccc(Cl)cc4)CC3)cc2)cc1S(=O)(=O)C(F)(F)F [AZD4320] + Cn1cnc2c(F)c(Nc3ccc(Br)cc3Cl)c(C(=O)NOCCO)cc21 [Selumetinib] (first compound max 1 µM, 7x7, partner max 3 µM) | combination Emax: 0.436

* * *

Let's look at some molecules and their measured Bliss excess.
# Tested on: KE-37 (T-Lymphoblastic Leukemia)
# Experiment Summary: Bliss excess, mean over the matrix (fraction); higher = more synergy

Example cases with answers are listed next.
Molecule: CC1(C)CCC(CN2CCN(c3ccc(C(=O)NS(=O)(=O)c4ccc(NCC5CCOCC5)c([N+](=O)[O-])c4)c(Oc4cnc5[nH]ccc5c4)c3)CC2)=C(c2ccc(Cl)cc2)C1 [Venetoclax] + C1CN(CCC1(C(=O)N[C@@H](CCO)C2=CC=C(C=C2)Cl)N)C3=NC=NC4=C3C=CN4 [Capivasertib] (first compound max 1 µM, 7x7, partner max 3 µM)
Bliss excess: 0.012
--
Molecule: Cc1cc2ncnn2cc1Nc1ncc2c(n1)n(C1CCOCC1)c(=O)n2C [AZD7648] + CN(C)CCCOc1ccc(-c2ccc3ncc4c(c3c2)n(C2CCOCC2)c(=O)n4C)cn1 [AZD0156] (first compound max 10 µM, 7x7, partner max 1 µM)
Bliss excess: 0.0492

Item: CC(=O)Nc1cccc(-n2c(=O)n(C3CC3)c(=O)c3c(Nc4ccc(I)cc4F)n(C)c(=O)c(C)c32)c1 [Trametinib] + Cc1nc(-c2cn3c(n2)-c2ccc(-c4cnn(C(C)(C)C(N)=O)c4)cc2OCC3)n(C(C)C)n1 [Taselisib] (first compound max 1 µM, 7x7, partner max 10 µM) | Bliss excess: 0.0968

Item: COc1cccc(OCCCN)c1-c1cc(Nc2cnc(C#N)cn2)n[nH]1 [Prexasertib] + Cc1cc2ncnn2cc1Nc1ncc2c(n1)n(C1CCOCC1)c(=O)n2C [AZD7648] (first compound max 1 µM, 7x7, partner max 10 µM) | Bliss excess: -0.006

* * *

# Tested on: SK-MEL-2 (Melanoma)
# Experiment Summary: combination Emax (second highest fraction inhibited in the dose matrix, 72 h); higher = more inhibition; extreme values may be limits of the assay
Quantity Name: combination Emax
Please reply with the number alone, leaving off any unit.

Compound: COc1nnc2ccc(N3CCC(c4ccc(OCCN5CCN(C)C(=O)[C@H]5C)cc4)CC3)nn12 [AZD5153] + C=CCn1c(=O)c2cnc(Nc3ccc(N4CCN(C)CC4)cc3)nc2n1-c1cccc(C(C)(C)O)n1 [AZD1775] (first compound max 1 µM, partner max 1 µM)
combination Emax: 0.635
//
Compound: O=C(c1cc(Cc2n[nH]c(=O)c3ccccc23)ccc1F)N1CCN(C(=O)C2CC2)CC1 [Olaparib] + CN(CC[C@H](CSC1=CC=CC=C1)NC2=C(C=C(C=C2)S(=O)(=O)NC(=O)C3=CC=C(C=C3)N4CCC(CC4)[C@H](C5=CC=CC=C5C6=CC=C(C=C6)Cl)O)S(=O)(=O)C(F)(F)F)CCO [AZD4320] (first compound max 10 µM, 7x7, partner max 1 µM)
combination Emax: 0.234

Proceeding to the next compound to report its combination Emax.
Item: C[C@@H](Nc1cc(F)cc(F)c1)c1cc(C(=O)N(C)C)cc2c(=O)cc(N3CCOCC3)oc12 [AZD8186] + C1CN(CCC1(C(=O)N[C@@H](CCO)C2=CC=C(C=C2)Cl)N)C3=NC=NC4=C3C=CN4 [AZD5363] (first compound max 10 µM, 7x7, partner max 10 µM) | combination Emax: 0.113

* * *

Let's look at some compounds and their measured Bliss excess.
# Tested on: NCI-H446 (Small Cell Lung Carcinoma)
# Experiment Summary: Bliss excess, mean over the matrix (fraction); higher = more synergy

Compound: NC1(C(=O)N[C@@H](CCO)c2ccc(Cl)cc2)CCN(c2ncnc3[nH]ccc23)CC1 [Capivasertib] + COc1nnc2ccc(N3CCC(c4ccc(OCCN5CCN(C)C(=O)[C@H]5C)cc4)CC3)nn12 [AZD5153] (first compound max 10 µM, 7x7, partner max 1 µM)
Target System: NCI-H446 (Small Cell Lung Carcinoma)
Bliss excess: 0.0021

Proceeding to the next compound to report its Bliss excess.
Item: CCN(CCO)CCCOc1ccc2c(Nc3cc(CC(=O)Nc4cccc(F)c4)[nH]n3)ncnc2c1 [AZD2811] + O=C(c1cc(Cc2n[nH]c(=O)c3ccccc23)ccc1F)N1CCN(C(=O)C2CC2)CC1 [Olaparib] (first compound max 1 µM, 7x7, partner max 10 µM) | Bliss excess: -0.0882

* * *

# Test system: SHP-77 (Small Cell Lung Carcinoma)
# Experiment Summary: Bliss excess, mean over the matrix (fraction); higher = more synergy
Let's look at some molecules and their measured Bliss excess.
Please reply with the number alone, leaving off any unit.

Molecule: C[C@@H](Oc1cc(-c2cnn(C3CCNCC3)c2)cnc1N)c1c(Cl)ccc(F)c1Cl [Crizotinib] + CC1=C(C(=CC=C1)Cl)NC(=O)C2=CN=C(S2)NC3=CC(=NC(=N3)C)N4CCN(CC4)CCO [Dasatinib] (first compound max 10 µM, 7x7, partner max 2 µM)
Bliss excess: -0.0482

Item: CC1(C)CCC(CN2CCN(c3ccc(C(=O)NS(=O)(=O)c4ccc(NCC5CCOCC5)c([N+](=O)[O-])c4)c(Oc4cnc5[nH]ccc5c4)c3)CC2)=C(c2ccc(Cl)cc2)C1 [Venetoclax] + CCN(CCO)CCCOc1ccc2c(Nc3cc(CC(=O)Nc4cccc(F)c4)[nH]n3)ncnc2c1 [AZD2811] (first compound max 1 µM, 7x7, partner max 1 µM) | Bliss excess: 0.0432

Item: O=C(c1cc(Cc2n[nH]c(=O)c3ccccc23)ccc1F)N1CCN(C(=O)C2CC2)CC1 [Olaparib] + CC1(C)CCC(CN2CCN(c3ccc(C(=O)NS(=O)(=O)c4ccc(NCC5CCOCC5)c([N+](=O)[O-])c4)c(Oc4cnc5[nH]ccc5c4)c3)CC2)=C(c2ccc(Cl)cc2)C1 [Venetoclax] (first compound max 10 µM, 7x7, partner max 1 µM) | Bliss excess: -0.0028

* * *

# Tested on: WM278 (Melanoma)
# Experiment Summary: Bliss excess, mean over the matrix (fraction); higher = more synergy
Quantity Name: Bliss excess

Example cases with answers are listed next.
Compound: CN(CCO)CC[C@H](CSc1ccccc1)Nc1ccc(S(=O)(=O)NC(=O)c2ccc(N3CCC([C@@H](O)c4ccccc4-c4ccc(Cl)cc4)CC3)cc2)cc1S(=O)(=O)C(F)(F)F [AZD4320] + C[C@@H]1COCCN1C2=NC(=NC(=C2)C3(CC3)[S@](=N)(=O)C)C4=C5C=CNC5=NC=C4 [AZD6738] (first compound max 1 µM, 7x7, partner max 10 µM)
Bliss excess: -0.0404
--
Compound: Cn1cnc2c(F)c(Nc3ccc(Br)cc3Cl)c(C(=O)NOCCO)cc21 [Selumetinib] + C[C@@H]1COCCN1C2=NC(=NC(=C2)C3(CC3)[S@](=N)(=O)C)C4=C5C=CNC5=NC=C4 [AZD6738] (first compound max 10 µM, 7x7, partner max 10 µM)
Bliss excess: 0.0642

Proceeding to the next compound to report its Bliss excess.
Observed Bliss excess on WM278 (Melanoma), entry CC1(C)CCC(CN2CCN(c3ccc(C(=O)NS(=O)(=O)c4ccc(NCC5CCOCC5)c([N+](=O)[O-])c4)c(Oc4cnc5[nH]ccc5c4)c3)CC2)=C(c2ccc(Cl)cc2)C1 [Venetoclax] + CN(C)CCCOc1ccc(-c2ccc3ncc4c(c3c2)n(C2CCOCC2)c(=O)n4C)cn1 [AZD0156] (first compound max 1 µM, 7x7, partner max 1 µM) , equals -0.0496
